Type: in vitro ADME, human
Conditions: human, whole saliva supernatant (WSS) diluted 1:10, reduction in band density, G2 and G3 (stated together); 1:10 diluted WSS; 37 °C; printed as after 4 h of incubation
Ends that are not written are not given here.
READOUT_TYPE: metabolised at 4 h, 100 μg/mL

Entry under test: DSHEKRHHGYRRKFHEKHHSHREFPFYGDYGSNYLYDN [histatin 1] . Its metabolised at 4 h, 100 μg/mL was ~14%

----------
Format: in vitro ADME, human
Settings: human, individual whole saliva supernatant (WSS) diluted 1:10
Ends that are not written are not given here.
READOUT_TYPE: remaining at 48 h, 100 μg/mL (%)
Respond numerically; units are % and should not be typed.

Lab note: measured remaining at 48 h, 100 μg/mL of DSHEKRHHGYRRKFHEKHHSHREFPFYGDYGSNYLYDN [histatin 1] was 56
